IC50 values by entry
Test system: Trypanosoma cruzi
method_notes: T. cruzi growth inhibition on MRC-5 cells (LMPH)
Format: cell-based
reported_conditions: MRC5

compound	tested_target	endpoint_unit	IC50
CC1(COc2cccc(-c3ccc(F)cc3F)n2)CCn2cc([N+](=O)[O-])nc2O1 (stereo not drawn) [compound 103]	Trypanosoma cruzi	nM	220
CC1(COCc2ccc(-c3ccc(F)cc3)cc2)CCn2cc([N+](=O)[O-])nc2O1 (stereo not drawn) [compound 27]	Trypanosoma cruzi	nM	840
O=[N+]([O-])c1cn2c(n1)OC(COc1cnc(-c3ccc(F)cc3)cn1)CC2 (stereo not drawn) [compound 126]	Trypanosoma cruzi	nM	4700
CC1(COc2ccc(-c3ccc(F)cc3)cc2)CCn2cc([N+](=O)[O-])nc2O1 (stereo not drawn) [compound 52]	Trypanosoma cruzi	nM	350
CC1(COc2cccc(-c3ccc(F)nc3F)n2)CCn2cc([N+](=O)[O-])nc2O1 (stereo not drawn) [compound 120]	Trypanosoma cruzi	nM	490
CC1(COC(=O)N2CCN(c3ccc(F)cc3)CC2)CCn2cc([N+](=O)[O-])nc2O1 (stereo not drawn) [compound 161]	Trypanosoma cruzi	nM	3900
CC1(COc2ccc(-c3ccc(F)cc3F)nc2)CCn2cc([N+](=O)[O-])nc2O1 (stereo not drawn) [compound 92]	Trypanosoma cruzi	nM	270
CC1(COc2ncc(-c3ccc(F)cc3)cn2)CCn2cc([N+](=O)[O-])nc2O1 (stereo not drawn) [compound 131]	Trypanosoma cruzi	nM	430
CC1(COc2ccc(-c3ccc(F)nc3)cc2)CCn2cc([N+](=O)[O-])nc2O1 (stereo not drawn) [compound 56]	Trypanosoma cruzi	nM	300
O=[N+]([O-])c1cn2c(n1)OC(COc1ccc(-c3ccc(F)nc3)cc1)CC2 (stereo not drawn) [compound 55]	Trypanosoma cruzi	nM	27
CC1(COc2ncc(-c3ccc(F)nc3)cn2)CCn2cc([N+](=O)[O-])nc2O1 (stereo not drawn) [compound 133]	Trypanosoma cruzi	nM	2900
O=C(OCC1CCn2cc([N+](=O)[O-])nc2O1)N1CCN(c2ccc(F)cc2)CC1 (stereo not drawn) [compound 160]	Trypanosoma cruzi	nM	1500
O=[N+]([O-])c1cn2c(n1)OC(COc1ncc(-c3ccc(F)cc3)cn1)CC2 (stereo not drawn) [compound 129]	Trypanosoma cruzi	nM	170
O=[N+]([O-])c1cn2c(n1)OC(COc1ccc(-c3ccc(F)cc3F)cn1)CC2 (stereo not drawn) [compound 62]	Trypanosoma cruzi	nM	30
O=[N+]([O-])c1cn2c(n1)OC(COc1cccc(-c3ccc(F)nc3)n1)CC2 (stereo not drawn) [compound 117]	Trypanosoma cruzi	nM	130
